Test: Pharmacokinetics in CD-1 mice (plasma concentrations, PK parameters)
Type: in vivo
Settings: CD-1, mouse, plasma, sc, 30 mg/kg, mouse (CD1) sc 30 mg/kg; 1 h; Mean; read-out: Concentration
quantity name: concentration at 1 h (ng/mL)

P. O=C1CCC(N2C(=O)c3cccc(NCCOCCOCCNCc4ccc(-n5cc(NC(=O)c6coc(-c7ccnc(NCC8CC8)c7)n6)c(C(F)F)n5)cc4)c3C2=O)C(=O)N1 (centres unmarked) [I-210]
Q. NC(=O)c1nn(-c2ccc(C(=O)NCCCCCNCCNc3cccc4c3C(=O)N(C3CCC(=O)NC3=O)C4=O)cc2)cc1NC(=O)c1coc(-c2ccnc(NCC(F)(F)F)c2)n1 (centres unmarked) [I-172]
Returns: the argument ( P or Q ) having the larger concentration at 1 h. Mark your answer with the label of the selected entry.
P
(P: 97 ng/mL, Q: 64.8 ng/mL)

* * *

Experiment: Pharmacokinetics in CD-1 mice (plasma concentrations, PK parameters)
Type: in vivo
Conditions: CD-1, mouse, plasma, iv, 2 mg/kg, mouse (CD1) iv 2 mg/kg; 2 h; Mean; read-out: Concentration
quantity name: concentration at 2 h (ng/mL)

a. NC(=O)c1nn(-c2ccc(C(=O)NCCCCCNCCNc3cccc4c3C(=O)N(C3CCC(=O)NC3=O)C4=O)cc2)cc1NC(=O)c1coc(-c2ccnc(NCC(F)(F)F)c2)n1 (centres unmarked) [I-172]
b. O=C1CCC(N2C(=O)c3cccc(NCCOCCOCCNCc4ccc(-n5cc(NC(=O)c6coc(-c7ccnc(NCC8CC8)c7)n6)c(C(F)F)n5)cc4)c3C2=O)C(=O)N1 (centres unmarked) [I-210]
I'm curious whether a or b has the smaller concentration at 2 h number. Which is it? Identify your pick by its label.
a

* * *

Test: Pharmacokinetics in Sprague Dawley rats (plasma and brain concentrations, PK parameters)
Format: in vivo
Settings: Sprague Dawley rat, iv 3 mg/kg, Rat 3
quantity name: AUClast/D Rat 3 (kg·ng·h/mL/mg)
Give the value in kg·ng·h/mL/mg but do not write kg·ng·h/mL/mg after it.

Please fill in: AUClast/D Rat 3 reported for O=C1CCC(N2C(=O)c3cccc(NCCOCCOCCNCc4ccc(-n5cc(NC(=O)c6coc(-c7ccnc(NCC8CC8)c7)n6)c(C(F)F)n5)cc4)c3C2=O)C(=O)N1 (stereo not shown) = 364

* * *

Assay: Pharmacokinetics in CD-1 mice (plasma concentrations, PK parameters)
Type: in vivo
Details: CD-1, mouse, plasma, sc, 30 mg/kg, mouse (CD1) sc 30 mg/kg; 2 h; individual Mouse 7-9; read-out: Concentration
quantity name: concentration at 2 h (ng/mL)

1. NC(=O)c1nn(-c2ccc(C(=O)NCCCCCNCCNc3cccc4c3C(=O)N(C3CCC(=O)NC3=O)C4=O)cc2)cc1NC(=O)c1coc(-c2ccnc(NCC(F)(F)F)c2)n1 (centres unmarked)
2. O=C1CCC(N2C(=O)c3cccc(NCCOCCOCCNCc4ccc(-n5cc(NC(=O)c6coc(-c7ccnc(NCC8CC8)c7)n6)c(C(F)F)n5)cc4)c3C2=O)C(=O)N1 (centres unmarked)
Sorting by concentration at 2 h in descending order, would 1 or 2 appear first? Your choice should be expressed through its label.
2

* * *

Test: Pharmacokinetics in Sprague Dawley rats (plasma and brain concentrations, PK parameters)
Format: in vivo
Settings: Sprague Dawley, rat, plasma, po, 10 mg/kg, Sprague Dawley rat, po 10 mg/kg, plasma, 4 h, Rat 6; read-out: Concentration Rat 6
quantity name: concentration at 4 h (ng/mL)
Use ng/mL as the unit, but write only the number.

Entry under test: O=C1CCC(N2C(=O)c3cccc(NCCOCCOCCNCc4ccc(-n5cc(NC(=O)c6coc(-c7ccnc(NCC8CC8)c7)n6)c(C(F)F)n5)cc4)c3C2=O)C(=O)N1 (stereo not shown) [I-210] . Its concentration at 4 h was 1.2
